Collected HepSE_cholecystitis values appear next to each entry.
- Test system: Hepatotoxicity;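 also: Cholecystitis-related hepatic side effect score drawn from the DILIps (drug-induced liver injury prediction) training data set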; also: call rule not given here
metric_name: HepSE_cholecystitis

molecule=COc1nc(N)nc2c1ncn2[C@@H]1O[C@H](CO)[C@@H](O)[C@@H]1O target_of_assay=Hepatotoxicity measurement=0
molecule=CC(C)(C)NC[C@H](O)COc1nsnc1N1CCOCC1 target_of_assay=Hepatotoxicity measurement=0
molecule="CN1C(=O)CC(C)(c2ccccc2)C1=O (centres undefined) [METHSUXIMIDE]" target_of_assay=Hepatotoxicity measurement=0
molecule=N[C@@H]1[C@H]2CN(c3nc4c(cc3F)c(=O)c(C(=O)O)cn4-c3ccc(F)cc3F)C[C@@H]12 target_of_assay=Hepatotoxicity measurement=0
molecule=C[C@]12CC[C@H]3[C@@H](CCC4=CC(=O)CC[C@@H]43)[C@@H]1CC[C@@H]2O target_of_assay=Hepatotoxicity measurement=0
molecule=N=C(N)NCCN1CCCCCCC1 target_of_assay=Hepatotoxicity measurement=0
molecule="Clc1ccc(COC(Cn2ccnc2)c2ccc(Cl)cc2Cl)cc1 (centres undefined)" target_of_assay=Hepatotoxicity measurement=0
molecule=C[C@H](/C=C/[C@H](C)C(C)(C)O)[C@H]1CC[C@H]2/C(=C/C=C3C[C@@H](O)C[C@H](O)C3)CCC[C@]12C target_of_assay=Hepatotoxicity measurement=0
molecule=O=NN(CCCl)C(=O)NCCCl target_of_assay=Hepatotoxicity measurement=0
